settings: in ethanol, 288.15 K
measure name: solubility (mole fraction)
API doc: respond with a numeric literal and nothing else, no unit.

Lab book: solubility (mole fraction) of "O=C(/C=C/C=C/c1ccc2c(c1)OCO2)N1CCCCC1" noted as 0.00607

====

settings: in ethyl acetate, 288.15 K
measure name: solubility (mole fraction)

Consider "O=C(/C=C/C=C/c1ccc2c(c1)OCO2)N1CCCCC1" . Its measured solubility (mole fraction) is 0.0132

====

details: in acetone, 308.15 K
measure name: solubility (mole fraction)
Number, no unit, nothing else.

Record "O=C(/C=C/C=C/c1ccc2c(c1)OCO2)N1CCCCC1" , field solubility (mole fraction): 0.0129

====

details: in acetone, 288.15 K
measure name: solubility (mole fraction)
// no unit, no text: just the number

response.value for "O=C(/C=C/C=C/c1ccc2c(c1)OCO2)N1CCCCC1" (field: solubility (mole fraction)) = 0.00706

====

details: in ethanol, 278.15 K
measure name: solubility (mole fraction)
Lab note: record the figure alone, no unit after it.

Value of solubility (mole fraction) reported for the molecule "O=C(/C=C/C=C/c1ccc2c(c1)OCO2)N1CCCCC1" is 0.00413

====

conditions: in acetone, 283.15 K
measure name: solubility (mole fraction)
Could you keep your reply to the number by itself?

Noted for "O=C(/C=C/C=C/c1ccc2c(c1)OCO2)N1CCCCC1" : its solubility (mole fraction) reads 0.00589

====

settings: in ethyl acetate, 293.15 K
measure name: solubility (mole fraction)
Could you respond with only the numeric value?

The compound listed as "O=C(/C=C/C=C/c1ccc2c(c1)OCO2)N1CCCCC1" shows solubility (mole fraction) equal to 0.0161

====

details: in ethanol, 303.15 K
measure name: solubility (mole fraction)
Reply with the value as a number alone.

Reported solubility (mole fraction) ( "O=C(/C=C/C=C/c1ccc2c(c1)OCO2)N1CCCCC1" ) = 0.00966

====

details: in ethyl acetate, 298.15 K
measure name: solubility (mole fraction)

The compound listed as "O=C(/C=C/C=C/c1ccc2c(c1)OCO2)N1CCCCC1" has a reported solubility (mole fraction) of 0.0194

====

settings: in acetone, 313.15 K
measure name: solubility (mole fraction)
Hey, just send me the number, nothing else.

// sample "O=C(/C=C/C=C/c1ccc2c(c1)OCO2)N1CCCCC1" , its solubility (mole fraction) was 0.0146

====

conditions: in ethanol, 308.15 K
measure name: solubility (mole fraction)
Please state the value as a number alone, without comment.

So, "O=C(/C=C/C=C/c1ccc2c(c1)OCO2)N1CCCCC1" ? Its solubility (mole fraction) was 0.0111

====

conditions: in ethanol, 283.15 K
measure name: solubility (mole fraction)
I'd appreciate a reply containing only the number, no unit.

GET /value?item= "O=C(/C=C/C=C/c1ccc2c(c1)OCO2)N1CCCCC1" &field=solubility (mole fraction) returns 0.00503

====

conditions: in acetone, 298.15 K
measure name: solubility (mole fraction)
Answer using only a numeral; do not append any unit.

In plain terms, "O=C(/C=C/C=C/c1ccc2c(c1)OCO2)N1CCCCC1" has a documented solubility (mole fraction) of 0.00973

====

conditions: in ethyl acetate, 283.15 K
measure name: solubility (mole fraction)
Response field accepts a number only; no unit should be typed.

For "O=C(/C=C/C=C/c1ccc2c(c1)OCO2)N1CCCCC1" the molecule record lists solubility (mole fraction) as 0.0104
